Hey, just so you know, these numbers are from paper PMC6745501.

assay system: T1, Arabidopsis COP1^349–675 WD40 domain (Arabidopsis, UniProt P43254 349-675)
T1 construct: COP1 (CONSTITUTIVELY PHOTOMORPHOGENIC 1) E3 ubiquitin ligase, Arabidopsis, WD40 domain, residues 349-675; also called COP1 WD40 domain; COP1 WD40; not shown: His10, N-terminal, cleaved; Twin-Strep, N-terminal, cleaved
T1 sequence (looked up): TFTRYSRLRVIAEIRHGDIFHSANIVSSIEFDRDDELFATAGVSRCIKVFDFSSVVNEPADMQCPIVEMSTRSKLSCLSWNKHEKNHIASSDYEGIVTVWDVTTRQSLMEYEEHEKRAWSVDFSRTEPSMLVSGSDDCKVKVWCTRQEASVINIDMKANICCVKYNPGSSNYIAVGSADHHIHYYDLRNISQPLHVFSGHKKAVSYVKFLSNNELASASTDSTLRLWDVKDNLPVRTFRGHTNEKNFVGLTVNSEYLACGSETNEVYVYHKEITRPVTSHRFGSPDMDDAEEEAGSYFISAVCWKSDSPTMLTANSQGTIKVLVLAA
procedure details: ITC; VP peptide (titrant, 500-3,000 μM) injected into COP1 WD40 in the cell at about 10-fold lower concentration; 150 mM NaCl, 20 mM HEPES 7.4, 2 mM BME; 25°C; one-site binding model
test context: both partners purified
readout kind: Kd

Input line: Query (binder): EIRRVPEFGG (peptide, UniProt O24646 39-48, looked up, ELONGATED HYPOCOTYL 5 (HY5) bZIP transcription factor, residues 39-48 (holds Arg41, Glu45); also called HY5 VP peptide; HY5 peptide; source: synthetic peptide (Peptide Specialty Labs GmbH)) [HY5^39–48 VP peptide] ; field requested: Kd
Output line: ~20 µM
